Test system: BaF3
Test: Antiproliferative activity against mouse BaF3 cells expressing TEL-fused BMX Cys496Ser assessed growth inhibition incubated for 2 to 5 days by CellTiter-Glo assay
Type: functional, cell-based
pIC50: −log10 of the molar value.
observable: pIC50

Form: molecule = C=CC(=O)Nc1cc(-n2c(=O)ccc3cnc4ccc(-c5ccc(NS(C)(=O)=O)cc5)cc4c32)ccc1C ; pIC50 = < 5.00

---

Biological target: Cytoplasmic tyrosine-protein kinase BMX (Homo sapiens, UniProt P51813)
Sequence (P51813 whole entry): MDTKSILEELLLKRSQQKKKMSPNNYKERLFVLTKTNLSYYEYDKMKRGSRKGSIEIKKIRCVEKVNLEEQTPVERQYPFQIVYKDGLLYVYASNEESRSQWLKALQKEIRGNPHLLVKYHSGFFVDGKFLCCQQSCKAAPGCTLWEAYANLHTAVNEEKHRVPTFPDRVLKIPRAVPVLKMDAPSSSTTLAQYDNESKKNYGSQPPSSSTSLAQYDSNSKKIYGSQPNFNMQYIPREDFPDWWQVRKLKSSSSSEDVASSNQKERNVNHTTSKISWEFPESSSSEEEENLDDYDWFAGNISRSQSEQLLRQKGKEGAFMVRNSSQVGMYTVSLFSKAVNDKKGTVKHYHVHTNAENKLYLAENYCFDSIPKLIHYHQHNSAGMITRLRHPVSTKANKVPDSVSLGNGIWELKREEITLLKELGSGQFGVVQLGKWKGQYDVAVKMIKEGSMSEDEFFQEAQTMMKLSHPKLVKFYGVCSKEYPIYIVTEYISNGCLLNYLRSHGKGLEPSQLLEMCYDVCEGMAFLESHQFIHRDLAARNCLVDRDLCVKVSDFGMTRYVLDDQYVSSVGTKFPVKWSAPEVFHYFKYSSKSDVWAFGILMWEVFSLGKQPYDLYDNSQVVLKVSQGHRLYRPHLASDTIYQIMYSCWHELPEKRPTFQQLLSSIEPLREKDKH
Assay: Inhibition of Flag-tagged BMX (unknown origin) expressed in HEK293T cells pre incubated for 30 mins followed by ATP addition and measured after 20 mins by immunoprecipitate assay
observable: IC50 (nM)
Numeric only. Scale: nM

The recorded IC50 for C=CC(=O)Nc1cc(-n2c(=O)ccc3cnc4ccc(-c5ccc(NS(C)(=O)=O)cc5)cc4c32)ccc1C is 138

---

Assay: Cytotoxicity against mouse BaF3 cells assessed growth inhibition incubated for 2 to 5 days by CellTiter-Glo assay
Type: toxicity, cell-based
Conditions: time 2-5 day
Exercise: state measured GI50 for each of the compounds provided.

Reported GI50 ( C=CC(=O)Nc1cc(-n2c(=O)ccc3cnc4ccc(-c5ccc(NS(C)(=O)=O)cc5)cc4c32)ccc1C ) = > 10 µM

// CCC(=O)Nc1cc(-n2c(=O)ccc3cnc4ccc(NS(C)(=O)=O)cc4c32)ccc1C : GI50 value = > 10 µM
